Measured values drawn from patent US12240815B2 for this set.

- study system: UniProt:P29476
- Sequence (P29476 whole entry): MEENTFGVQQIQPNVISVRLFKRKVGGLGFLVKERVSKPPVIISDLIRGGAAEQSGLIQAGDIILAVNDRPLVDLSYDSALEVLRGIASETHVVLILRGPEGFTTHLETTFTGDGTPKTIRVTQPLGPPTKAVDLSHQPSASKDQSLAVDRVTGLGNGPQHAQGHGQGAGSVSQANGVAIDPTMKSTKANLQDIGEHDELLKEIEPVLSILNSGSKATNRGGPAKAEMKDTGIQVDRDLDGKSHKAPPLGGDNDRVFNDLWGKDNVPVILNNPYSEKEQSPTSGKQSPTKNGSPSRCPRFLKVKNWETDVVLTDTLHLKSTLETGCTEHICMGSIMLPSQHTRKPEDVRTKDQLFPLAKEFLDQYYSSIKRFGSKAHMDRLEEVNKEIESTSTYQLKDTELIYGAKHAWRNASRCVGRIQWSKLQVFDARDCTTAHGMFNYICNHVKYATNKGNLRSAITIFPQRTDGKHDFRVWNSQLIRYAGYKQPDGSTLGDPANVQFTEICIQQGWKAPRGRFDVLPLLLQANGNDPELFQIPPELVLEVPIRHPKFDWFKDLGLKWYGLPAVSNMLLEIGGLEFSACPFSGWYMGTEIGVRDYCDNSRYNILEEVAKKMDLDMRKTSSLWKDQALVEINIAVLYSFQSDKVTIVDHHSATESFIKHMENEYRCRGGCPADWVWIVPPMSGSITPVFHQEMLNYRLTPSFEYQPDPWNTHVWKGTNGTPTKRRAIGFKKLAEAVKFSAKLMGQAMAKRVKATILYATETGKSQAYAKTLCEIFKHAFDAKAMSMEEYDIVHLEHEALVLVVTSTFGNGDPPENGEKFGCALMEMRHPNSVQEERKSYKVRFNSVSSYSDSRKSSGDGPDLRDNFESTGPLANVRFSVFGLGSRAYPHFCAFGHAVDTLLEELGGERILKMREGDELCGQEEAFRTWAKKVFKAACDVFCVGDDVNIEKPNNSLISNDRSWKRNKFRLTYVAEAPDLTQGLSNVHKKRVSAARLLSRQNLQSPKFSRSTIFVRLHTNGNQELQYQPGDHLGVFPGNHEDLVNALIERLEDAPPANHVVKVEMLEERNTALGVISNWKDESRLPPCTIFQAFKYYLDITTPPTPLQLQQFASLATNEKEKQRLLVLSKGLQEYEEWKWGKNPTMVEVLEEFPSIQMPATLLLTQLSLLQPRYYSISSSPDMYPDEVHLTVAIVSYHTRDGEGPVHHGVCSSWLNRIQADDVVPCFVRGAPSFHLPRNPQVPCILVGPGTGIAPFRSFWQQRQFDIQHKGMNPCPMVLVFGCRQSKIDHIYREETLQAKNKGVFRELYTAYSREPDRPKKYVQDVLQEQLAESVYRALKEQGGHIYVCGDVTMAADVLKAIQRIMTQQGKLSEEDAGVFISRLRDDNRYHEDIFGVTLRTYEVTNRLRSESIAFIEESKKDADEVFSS
- test details: NO hemoglobin capture assay, rat nNOS
- Format: biochemical
- test settings: pH 7.4; read-out: Ki rat nNOS
quantity: pKi
Units for pKi: none; it is -log10 of a concentration expressed in mol/L.

Examples with their reported pKi follow.
| compound | study system | quantity | assay result |
| --- | --- | --- | --- |
| Cc1cc(N)nc(CCc2cc(F)cc(C#CCN(C)C)c2)c1 [Compound 3] | UniProt:P29476 | pKi | 7.24 |
| CCO[C@@H]1C[C@H](CCc2cc(F)c(F)c(CCc3cc(C)cc(N)n3)c2)N(C)C1 [Compound 20] | UniProt:P29476 | pKi | 7.26 |
| Cc1cc(N)nc(CCc2cc(F)cc(CCCN(C)C)c2F)c1 [Compound 12] | UniProt:P29476 | pKi | 7.10 |
| Cc1cc(N)nc(CCc2cc(CC[C@H]3COCCN3C)cc(F)c2F)c1 [Compound 19] | UniProt:P29476 | pKi | 7.21 |

Attention now shifts to the item below.
Task: Please look up its pKi: Cc1cc(N)nc(CCc2cc(C#CCN(C)C)cc(F)c2F)c1 [Compound 16]
Result: 7.09

---

- study system: human eNOS (Homo sapiens)
- test details: NO hemoglobin capture assay, human eNOS
- test settings: read-out: Ki human eNOS
quantity: Ki (µM)
The figure you give is taken to be in µM; do not add the unit.

Task: Please look up its Ki: `Cc1cc(N)nc(CCc2cc(CCCN(C)C)cc(F)c2F)c1`
Result: 35

---

As shown below, each of these compounds has a reported Ki value.
- study system: human iNOS (Homo sapiens, UniProt P35228)
- test details: NO hemoglobin capture assay, human iNOS
- test settings: read-out: Ki HiNOS; Table 5; Ki from IC50 by Cheng-Prusoff, 8 to 11 concentrations
Counter-ions that a name gives are not always drawn.
The figure you give is taken to be in µM; do not add the unit.

Examples with their reported Ki follow.
| compound | quantity | assay result |
| --- | --- | --- |
| Cc1cc(N)nc(CCCN(C)C)c1 [Compound 69, hydrochloride] | Ki | 2.83 |
| CNCCCc1cc(C)cc(N)n1 [Compound 70, hydrochloride] | Ki | 0.669 |
| Cc1cc(N)nc(C#CCN2CCN(C)CC2)c1 [Compound 73] | Ki | 114 |

Task: Please look up its Ki: CNCC#Cc1cc(C)cc(N)n1 [Compound 71, hydrochloride]
Result: 3.58

Task: Please look up its Ki: Cc1cc(N)nc(CCCN2CCN(C)CC2)c1 [Compound 72]
Result: 10.2

---

- test details: PAMPA-BBB assay
- test settings: PAMPA, pH 7.5
quantity: Papp at 17 h, 200 μM

| input smiles | quantity | assay result |
| --- | --- | --- |
| Cc1cc(N)nc(CCc2cc(CC[C@@H]3CCCN3C)cc(F)c2F)c1 | Papp at 17 h, 200 μM | ~18 ×10⁻⁶ cm/s |

Attention now shifts to the item below.
Task: Please look up its Papp at 17 h, 200 μM: `Cc1cc(N)nc(CCc2cc(CC[C@H]3CCCN3C)cc(F)c2F)c1`
Result: ~18 ×10⁻⁶ cm/s

---

As shown below, each of these compounds has a reported Ki value.
- study system: human eNOS (Homo sapiens)
- test details: NO hemoglobin capture assay, human eNOS
Counter-ions that a name gives are not always drawn.
The figure you give is taken to be in µM; do not add the unit.

Examples with their reported Ki follow.
| compound | display unit | assay result |
| --- | --- | --- |
| Cc1cc(N)nc(CCc2c(F)c(F)cc(CC[C@H]3CCCN3C)c2F)c1 | µM | 27.3 |
| CNC/C=C\c1cc(F)cc(CCc2cc(C)cc(N)n2)c1 | µM | 24.7 |
| CNCC#Cc1cc(F)c(F)c(CCc2cc(C)cc(N)n2)c1F | µM | 26.5 |
| Cc1cc(N)nc(CCCN(C)C)c1 [Compound 69, hydrochloride] | µM | 0.537 |
| CNC/C=C/c1cc(F)cc(CCc2cc(C)cc(N)n2)c1 | µM | 20.2 |
| Cc1cc(N)nc(CCc2c(F)c(F)cc(CC[C@@H]3CCCN3C)c2F)c1 | µM | 29.8 |
| CNCc1ccc2ncc(CCc3cc(C)cc(N)n3)cc2c1 | µM | 22.1 |

Attention now shifts to the item below.
Task: Please look up its Ki: `CN(C)CCc1cc(F)c(F)c(CCc2cc(C(F)(F)F)cc(N)n2)c1`
Result: 102
